biological target: LmjIPCS (inositol phosphorylceramide synthase from L. major) (Leishmania major); assay: biochemical; format: biochemical; parameters: dose or concentration left out as unconfirmed; settings: NINDS set screen; read-out: inhibition LmjIPCS
Sequence (E9AFX2 whole entry): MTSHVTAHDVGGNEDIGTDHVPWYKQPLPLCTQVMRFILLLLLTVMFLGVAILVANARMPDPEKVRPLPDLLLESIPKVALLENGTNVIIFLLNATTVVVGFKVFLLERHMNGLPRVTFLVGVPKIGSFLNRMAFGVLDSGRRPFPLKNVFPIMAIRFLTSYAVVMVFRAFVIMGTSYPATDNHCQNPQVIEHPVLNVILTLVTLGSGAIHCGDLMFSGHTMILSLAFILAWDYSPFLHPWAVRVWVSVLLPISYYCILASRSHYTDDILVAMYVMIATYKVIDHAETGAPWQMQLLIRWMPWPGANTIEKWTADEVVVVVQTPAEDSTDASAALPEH
Label scheme for inhibition: lower than 10% is not satisfied, 10% and above is satisfied.

Below are worked cases with known answers.
compound	test_system	answer_label
CC(C)NNC(=O)c1ccncc1	LmjIPCS (inositol phosphorylceramide synthase from L. major) (Leishmania major)	satisfied
O=C(c1ccccc1)c1ccc2n1CCC2C(=O)O (stereo not drawn)	LmjIPCS (inositol phosphorylceramide synthase from L. major) (Leishmania major)	satisfied
OCCN(CCO)c1nc(N2CCCCC2)c2nc(N(CCO)CCO)nc(N3CCCCC3)c2n1	LmjIPCS (inositol phosphorylceramide synthase from L. major) (Leishmania major)	not satisfied
COC(=O)/C(=C1/OC(=O)C(c2ccccc2)=C1O)c1ccccc1	LmjIPCS (inositol phosphorylceramide synthase from L. major) (Leishmania major)	satisfied
CC(=O)N1CCCC1C(=O)O (stereo not drawn)	LmjIPCS (inositol phosphorylceramide synthase from L. major) (Leishmania major)	not satisfied

*Q* Reported inhibition at or above 10%? Nc1nc2c(c(=O)[nH]1)N(C=O)C(CNc1ccc(C(=O)N[C@@H](CCC(=O)O)C(=O)O)cc1)CN2 (stereo partly drawn)
*A* satisfied

*Q* Reported inhibition at or above 10%? C#C[C@]1(O)CC[C@H]2[C@@H]3CCc4cc(O)ccc4[C@H]3CC[C@@]21C
*A* not satisfied

---

// inhibition at 20000 µM lookup, one value per entry
target: LmjIPCS (inositol phosphorylceramide synthase from L. major) (Leishmania major); test: biochemical; assay type: biochemical; details: read-out: 20mM inhibition LmjIPCS
Answer by giving the amount and then stating its unit.

compound	inhibition at 20000 µM
C#CC1(O)CC[C@H]2[C@@H]3CCC4=CC(=O)CC[C@@H]4[C@H]3CC[C@@]21CC (mixture of isomers) [NORGESTREL]	17%

*Q* inhibition at 20000 µM of CN(C)c1nc(N(C)C)nc(N(C)C)n1 [ALTRETAMINE] on LmjIPCS (inositol phosphorylceramide synthase from L. major) (Leishmania major)?
*A* 4%

*Q* inhibition at 20000 µM of CCn1cc(C(=O)O)c(=O)c2ccc(C)nc21 [NALIDIXIC ACID] on LmjIPCS (inositol phosphorylceramide synthase from L. major) (Leishmania major)?
*A* -11%

*Q* inhibition at 20000 µM of C/C=C(\C)C(=O)O[C@H]1C[C@@H](OC(C)=O)[C@@]2(C(=O)OC)CO[C@H]3[C@@H](O)[C@@](C)([C@]45O[C@@]4(C)[C@H]4C[C@@H]5O[C@@H]5OC=C[C@@]54O)[C@H]4[C@]1(CO[C@]4(O)C(=O)OC)[C@@H]32 [AZADIRACHTIN] on LmjIPCS (inositol phosphorylceramide synthase from L. major) (Leishmania major)?
*A* 3.53%

*Q* inhibition at 20000 µM of COc1cnc(NS(=O)(=O)c2ccc(N)cc2)nc1 on LmjIPCS (inositol phosphorylceramide synthase from L. major) (Leishmania major)?
*A* 21%

*Q* inhibition at 20000 µM of CCOC(N)=O on LmjIPCS (inositol phosphorylceramide synthase from L. major) (Leishmania major)?
*A* 11%

*Q* inhibition at 20000 µM of c1ccc2c(c1)sc1ccccc12 [DIBENZOTHIOPHENE] on LmjIPCS (inositol phosphorylceramide synthase from L. major) (Leishmania major)?
*A* 32%

*Q* inhibition at 20000 µM of CC1(C)S[C@@H]2[C@H](NC(=O)COc3ccccc3)C(=O)N2[C@H]1C(=O)O [PENICILLIN V] on LmjIPCS (inositol phosphorylceramide synthase from L. major) (Leishmania major)?
*A* 3.31%
